# System: NCI-H522 lung
# testSummary: NCI-60 one-dose screen, 48 h (100 = growth as untreated, 0 = no growth, -100 = all killed)
# appliedConditions: 10 µM unless noted
About 83,000 compounds went through this panel and 20% of them were active in at least one assay; those are over-represented in the sample as a whole.
Reported values of growth for individual entries
quantityName: growth (%)

• COC(=O)/C=C/c1cccc2c1C(=O)NC(C)(c1cc3cc4ccccc4cc3oc1=O)N2 (stereo not drawn) = 52.9
• CC(=O)Nc1cccc(Nc2nc(N[C@H]3CCCc4ccccc43)c3ccccc3n2)c1 = 97.5
• C/C(=N\N=C1/C(=O)Nc2ccccc21)c1ccc2c(c1)Nc1ccccc1S2 = 43.7
• CCCCCCCS(=O)(=O)N1CCCC(C(=O)Nc2nc3ccc(NC(=O)c4ccc(F)c(OC)c4F)cc3s2)C1 (stereo not drawn) = 24.7
• COC1=C[C@]23CCC(=O)N2CCc2cc4c(cc2[C@@H]3[C@@H]1OC(=O)[C@H](C)O)OCO4 = -48.1
• CCCCSc1nc(NCCc2c[nH]c3ccccc23)c(C#N)c(-c2ccc(OC)cc2)n1 = 57.7
• C=C1CCC2C3(C)COC(c4ccc(F)cc4)OC3CCC2(C)C1C/C=C1/C(=O)OCC1O (stereo not drawn) = -80.7
• O=C(O)Cn1c(O)c(/C=C2/C=c3cc4c(cc3=NC2=O)OCCO4)sc1=S = 103
• CN1CCN(Cc2ccc(C(=O)Nc3cccc(C#Cc4cccc5[nH]nc(N)c45)c3)cc2C(F)(F)F)CC1 = -64.3
• O=C(Cn1c(/C=C/c2cccc([N+](=O)[O-])c2)nc2ccccc2c1=O)Nc1ccccc1 = 91.8
• CCN(CC)c1ccnc(CNCCSC(c2ccccc2)(c2ccccc2)c2ccc(OC)cc2)c1 = -67.8
• Cc1occc1C(=O)NN1C(=O)/C(=C/C=C/c2ccc([N+](=O)[O-])o2)SC1=S = -91.5
• CN1CCN(c2ccc(C(=O)/C=C/c3ccc(Br)cc3)cc2)CC1 = 52.8
• C=C1CC[C@@H]2[C@]3(C)COC(c4cn[nH]c4-c4ccc(C)cc4)O[C@@H]3CC[C@@]2(C)[C@@H]1C/C=C1/C(=O)OCC1O (stereo partly drawn) = -58.4
• COc1ccc(NC(=O)[C@H](C)N)cc1C(=O)Nc1cccc(C2CC(=O)c3c(cc(OC)c(OC)c3OC)O2)c1 (stereo partly drawn) = 81.7
• COc1ccccc1C(=O)NN1C(=O)/C(=C/C2=Cc3ccccc3OC2)SC1=S = 97.9
• COc1cc2c(c(OC)c1OC)C(=O)CC(c1cccc(NC(=O)c3cc([N+](=O)[O-])ccc3Cl)c1)O2 (stereo not drawn) = -27.1
• O=C(Cn1c2c(sc1=O)[C@H]1[C@@H](O)[C@@H](O)[C@H](O)[C@@H]1CS2)N1CCOCC1 = 91.7

###

# Test system: SR leukemia
# testSummary: NCI-60 one-dose screen, 48 h (100 = growth as untreated, 0 = no growth, -100 = all killed)
# appliedConditions: 10 µM unless noted
About 83,000 compounds went through this panel and 20% of them were active in at least one assay; those are over-represented in the sample as a whole.
Reported values of growth for individual entries
quantityName: growth (%)

* COc1c(F)ccc(C(=O)Nc2ccc3nc(NC(=O)C4CCCN(S(=O)(=O)c5ccc(C#N)cc5)C4)sc3c2)c1F (stereo not drawn) | 74.4
* Cc1ccccc1[C@H]1C(C(=O)c2ccc(Cl)cc2)C2(N[C@@H]1c1ccccc1)C(=O)Nc1ccc(Cl)cc12 (stereo partly drawn) | -23.6
* N#Cc1c(-c2ccc(Br)cc2)nc2n[nH]c(-c3ccc(Br)cc3)c2c1-c1ccc(F)cc1 | 80.7
* Nc1nc(-c2ccccc2)c(N=Nc2ccc([N+](=O)[O-])cc2Cl)s1 | 136
* COc1c(F)ccc(C(=O)Nc2ccc3nc(NC(=O)C4CCCN(S(=O)(=O)c5ccc(Br)c(F)c5)C4)sc3c2)c1F (stereo not drawn) | 47.2
* Cc1cc2nc3c([nH]c2cc1C)c1ccc(=O)cc1n3CCN(C)C | 3.01
* CC1[C@H]2[C@H](C[C@H]3[C@@H]4CC=C5c6sc(Nc7ccccc7F)nc6CC[C@]5(C)[C@H]4CC[C@@]32C)O[C@]12CC[C@@H](C)CO2 (stereo partly drawn) | 4.49
* CCOC(=O)C1=C(N)N(c2ccccc2)C2=C(C(=O)CC(C)(C)C2)C1c1ccc([N+](=O)[O-])cc1 (stereo not drawn) | 66.4

###

Reported values of growth for individual entries
# Test system: HS 578T breast
# testSummary: NCI-60 one-dose screen, 48 h (100 = growth as untreated, 0 = no growth, -100 = all killed)
# appliedConditions: 10 µM unless noted
Compounds without any hit were thinned out: in the full panel of roughly 83,000, 20% have a hit.
quantityName: growth (%)

* O=C(CSc1nc2ccccc2c(=O)[nH]1)NCCN1CCCCC1 | 94.1
* COc1cc2oc(-c3cccc(NC(=O)[C@H](CC(N)=O)NC(=O)OC(C)(C)C)c3)cc(=O)c2c(OC)c1OC | 83.1
* O=C(c1ccccc1)c1ccc2nc(-c3cccc(Cl)c3)[nH]c2c1 | 108
* O=C(c1ccccc1)c1ccc2nc(-c3ccc(F)cc3)[nH]c2c1 | 65.1
* COc1ccc(-c2ccnc(SCc3cc4ccccc4[nH]c3=O)n2)cc1 | 48.2
* O=C(Cn1c(/C=C/c2ccccc2)nc2ccccc2c1=O)Nc1ccccc1 | 82.5
* Cc1cc2nc3c4ccccc4n(CCNCCN(C)C)c3nc2cc1C | 44.9
* CCCSc1nc(Nc2ccc(S(N)(=O)=O)cc2)c(C#N)c(-c2ccc(Cl)cc2)n1 | 12.5
* CN(C)c1ccnc(CNCCSC2(c3ccc(C(F)(F)F)cc3)c3ccccc3CCc3ccccc32)c1 | -23.4
* COc1c(F)ccc(C(=O)Nc2ccc3nc(NC(=O)C4CCCN(S(=O)(=O)c5ccc(C(F)(F)F)cc5)C4)sc3c2)c1F (stereo not given) | 51.4

###

# Tested on: RXF 393 renal
# testSummary: NCI-60 one-dose screen, 48 h
# appliedConditions: 10 µM unless noted
About 83,000 compounds went through this panel and 20% of them were active in at least one assay; those are over-represented in the sample as a whole. Activity calls are given as the source filed them. How the source made its calls: active means growth percent below 10; inactive means the rest.
Labels: active, inactive

• COc1ccc(-c2ccnc(SCc3cc4ccccc4[nH]c3=O)n2)cc1OC = active
• COc1ccc2c(c1)c(/C=N/Nc1ccc3ccccc3n1)cn2C = inactive
• N#Cc1c(-c2cccc3ccccc23)cc(-c2cccc(OCC(=O)O)c2)[nH]c1=O = inactive
• C=C1CCC2C3(C)COC(c4ccco4)OC3CCC2(C)C1CC(Sc1ccccc1)C1=CCOC1=O (stereo not given) = inactive
• CCCCCCCCc1ccc(S(=O)(=O)Nc2ccc(CC)cc2C(=O)O)cc1 = inactive
• C(=C\c1cc(/C=C/c2ccccc2)c2ccccc2n1)/c1ccccc1 = inactive
• CN(C)c1nc(NCCNS(=O)(=O)c2ccc(C(=O)/C=C/c3ccc(F)cc3)cc2)nc(Nc2ccc(F)cc2)n1 = active
• CC(=O)Nc1ccc(-c2cn(-c3cccc(C(=O)Nc4ccc(N5CCN(C)CC5)cc4)c3)nn2)cn1 = inactive
• COc1ccc(C(=O)/C=C/c2ccc(Cl)c(Cl)c2)cc1S(N)(=O)=O = active
• CC1(C)CC[C@]2(C(=O)Nc3ccc(Br)cc3)CC[C@]3(C)C(=CCC4[C@@]5(C)C[C@@H](O)[C@H](O)[C@@](C)(CO)C5CC[C@]43C)C2C1 (stereo not given in full) = active
• O=C(COc1ccc(NC(=O)Nc2ccc(Cl)cc2)cc1)N/N=C/c1ccccc1 = active
• CN(C)c1nc(NCCNS(=O)(=O)c2ccc(C(=O)/C=C/c3ccc(Cl)cc3)cc2)nc(Nc2ccc(F)cc2)n1 = active
• COc1cc(-c2cc(-c3cccc(OCC(=O)O)c3)[nH]c(=O)c2C#N)cc(OC)c1OC = inactive
• Cn1cc(-c2cc(N)n3nc(-c4cn(C)c5ccccc45)cc3n2)c2cc(Br)ccc21 = active
• C=C1CC[C@@H]2[C@]3(C)COC(c4ccco4)O[C@@H]3CC[C@@]2(C)[C@@H]1C/C=C1/C(=O)OCC1OC(C)=O (stereo not given in full) = inactive
• Cc1ccc(S(=O)(=O)c2nc(S(=O)(=O)c3ccc(C)cc3)c(Cl)s2)cc1 = active
• Cn1cc(-c2cc(N)n3nc(-c4cn(C)c5ncc(Br)cc45)cc3n2)c2cc(Br)cnc21 = inactive
• O=C(/C=C/c1ccc(-c2ccccc2)cc1)c1nc2ccccc2n1Cc1ccc(Br)cc1 = inactive
• COc1cc2c(c(OC)c1OC)C(=O)CC(c1cccc(NC(=O)c3cccc([N+](=O)[O-])c3)c1)O2 (stereo not given) = inactive
• COc1ccc(N2N=C(c3ccc4c(c3)OCO4)CC2c2cccc(NC(=O)CCNS(=O)(=O)c3ccc(Cl)cc3)c2)cc1 (stereo not given) = active
• COC1=C[C@]23CCC(=O)N2CCc2cc4c(cc2[C@@H]3[C@@H]1OC(=O)[C@H](C)O)OCO4 = active
• COc1cc2c(c(OC)c1OC)C(=O)CC(c1cccc(NC(=O)c3cc(NC(=O)[C@H](CO)NC(=O)OC(C)(C)C)ccc3Cl)c1)O2 (stereo not given in full) = inactive
• CC(C)CSc1nc(NCCc2c[nH]c3ccccc23)c(C#N)c(-c2ccccc2)n1 = inactive
• CC1(C)CC[C@]2(C(=O)O)CC[C@]3(C)C(=CCC4[C@@]5(C)C[C@@H](O)[C@@H]6OC(c7cccc(Br)c7)OC[C@@]6(C)C5CC[C@]43C)C2C1 (stereo not given in full) = inactive
• CC1=C(C#N)C2=NNCC(c3ccccc3)=NN2C(c2ccccc2)=C1 = inactive
• CC1=C(C(=O)c2ccccc2)C(c2cccc3ccccc23)n2c(nc3ccccc32)N1 (stereo not given) = inactive
• CCOC(=O)C1=C(N)N(c2ccccc2)C2=C(C(=O)CC(C)(C)C2)C1c1ccc(Cl)cc1Cl (stereo not given) = inactive
• CC(=O)Nc1ccc(-c2nc3cc(-c4ccc(O)cc4)ccc3n2C)cc1 = inactive
• COc1ccc2c(c1)C(=N/N=C(\C)c1ccc(OC)c(S(N)(=O)=O)c1)C(=O)N2 = inactive
• COc1ccc(C2(SCCNCc3cc(N(C)C)ccn3)c3ccccc3C=Cc3ccccc32)cc1 = active
• Cc1ccc(C(=O)NN2C(=O)/C(=C/C=C/c3ccc([N+](=O)[O-])o3)SC2=S)cc1 = active
• CN(C)c1nc(NCCNS(=O)(=O)c2ccc(C3=Nc4c(N)nc(N)nc4NC(c4ccc(Cl)cc4)C3)cc2)nc(Nc2ccc(F)cc2)n1 (stereo not given) = inactive
• C#CCOc1ccc(/C=N/Nc2nc(-c3ccc(F)cc3)cs2)cc1OC = inactive
• NS(=O)(=O)c1ccc(NNC(=O)CCC(=O)c2ccccc2)cc1 = inactive
• CN(C)c1nc(NCCNS(=O)(=O)c2ccc(C(=O)/C=C/c3ccc(C(F)(F)F)cc3)cc2)nc(Nc2ccc(F)cc2)n1 = active
